PBM binding z-score for assorted sequences
System: RARg homodimer (NR concentration 270 nM)
assay.details: PBM binding z-score (relative to random genomic background probes); higher = stronger binding; sequences stand for … in GC…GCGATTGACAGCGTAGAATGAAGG
Lab note: record just the number, no unit beside it.

Consider the reported PBM binding z-score for these sequences:
GCTATTATTTGAAAGGGCAACCGAATGATTCTCG :: 1.27
TCTCCGAGGACACGAAAGGTCAGAGCTCGACATC :: 5.54
CTTTACGGGTCACGAGGTTATAGCACGACGAGCG :: 5.71
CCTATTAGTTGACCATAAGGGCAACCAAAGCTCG :: 1.14

Input: Bench note: what PBM binding z-score did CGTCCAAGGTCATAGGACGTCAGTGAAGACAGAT show?
Output: 5.4

Input: Bench note: what PBM binding z-score did ATACCAAGGTGATCGTGAGGGCGTTGATACTAAC show?
Output: 0.461

###

PBM binding z-score for assorted sequences
Tested on: PPARg DBDmut IVT, anti-PPARg (DBD mutation: PPARg1 K132A/R137A, NR concentration 270 nM)
assay.details: PBM binding z-score (relative to random genomic background probes); higher = stronger binding; sequences stand for … in GC…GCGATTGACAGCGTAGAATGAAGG

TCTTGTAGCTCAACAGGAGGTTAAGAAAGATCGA :: 0.0315

Input: // map TGGAGTAGGTTACCAATGGGGCATTCAGCTTTCT to recorded PBM binding z-score (system: PPARg DBDmut IVT, anti-PPARg (DBD mutation: PPARg1 K132A/R137A, NR concentration 270 nM))
Output: 1.38

Input: // map GCTTACTGGTCAAAGGTTATAGCATGAATAGAAT to recorded PBM binding z-score (system: PPARg DBDmut IVT, anti-PPARg (DBD mutation: PPARg1 K132A/R137A, NR concentration 270 nM))
Output: 1.11

###

Tested on: LXRb homodimer (NR concentration 270 nM)
assay.details: PBM binding z-score (relative to random genomic background probes); higher = stronger binding; sequences stand for … in GC…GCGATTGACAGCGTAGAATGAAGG
outcome.measure: PBM binding z-score
Lab note: record just the number, no unit beside it.

Consider the reported PBM binding z-score for these sequences:
TCTATTAGTTGATTAGGGCGACCGAAACAGCGGA :: 0.556
CGTCCAAGGTCATAGGCGGTCAGTGAAGACAGAT :: 0.324
AGAATGCGGTTAAGATCAGGGAAACAGAATACAT :: -0.913
GATACAGGGTCAGCTAGACGCCAGAGTATGGAAA :: -0.431

Input: Bench note: what PBM binding z-score did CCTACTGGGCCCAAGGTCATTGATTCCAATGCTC show?
Output: 0.0311

Input: Bench note: what PBM binding z-score did CCTTCTGGGCCAAAGGTCATTGATTCCAATGCTC show?
Output: 1.15

Input: Bench note: what PBM binding z-score did TCAAATAGGTAAACAGGTGAAAGTCCGTAAGTTA show?
Output: -0.112

Input: Bench note: what PBM binding z-score did CCTATTAGTTGACCATAAGAGCAACCGAAGCTCG show?
Output: 1.16

Input: Bench note: what PBM binding z-score did ATATGTATGTTACATCCGGGTCATTCAGGCTATG show?
Output: 0.763

Input: Bench note: what PBM binding z-score did ACTATTAGTTGAGACGAGCGCAACCGATAGGTTG show?
Output: -0.159

Input: Bench note: what PBM binding z-score did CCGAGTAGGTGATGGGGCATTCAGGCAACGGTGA show?
Output: -1.01

Input: Bench note: what PBM binding z-score did GCTAGCAGGCCATTTGGGTCACTCACTGACGGGC show?
Output: -0.64

Input: Bench note: what PBM binding z-score did TCTGCTAGGTCAACGATGGTCAGCTTATCTGCTA show?
Output: -0.302

Input: Bench note: what PBM binding z-score did TTACCAAGGCGAAGGTCGTTGATCCCTCTGTAGA show?
Output: -0.992

Input: Bench note: what PBM binding z-score did TATACACGGTCAAAGGCCAGAGTACGAATGTCGA show?
Output: 1.43
